Where do the numbers come from? From patent US20230250060A1.

- TESTED_ON: STING (Homo sapiens, UniProt Q86WV6, G230A/H232R/R293Q/R71H)
- Sequence (Q86WV6 whole entry R71H/G230A/H232R/R293Q): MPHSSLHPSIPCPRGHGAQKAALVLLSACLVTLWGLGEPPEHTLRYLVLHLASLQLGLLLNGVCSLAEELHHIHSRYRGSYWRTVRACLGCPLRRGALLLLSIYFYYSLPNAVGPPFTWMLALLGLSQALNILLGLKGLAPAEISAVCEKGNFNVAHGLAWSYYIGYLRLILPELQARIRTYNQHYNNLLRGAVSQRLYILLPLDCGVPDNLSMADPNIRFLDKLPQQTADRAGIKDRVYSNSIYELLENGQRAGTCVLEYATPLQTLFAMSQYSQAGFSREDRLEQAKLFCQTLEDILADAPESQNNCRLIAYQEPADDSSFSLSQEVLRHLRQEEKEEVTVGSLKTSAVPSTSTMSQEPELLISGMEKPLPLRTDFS
- TEST_DESCRIPTION: STING reporter assay (luciferase) in THP1-Dual KO-IFNAR2 cells stimulated with 2′3′cGAMP
- ASSAY_CONDITIONS: 2′3′cGAMP 15 μM final, 24 h, luciferase reporter activity, read-out: Pharmaron, THP1_IFNAR2 STING 24 h Luci Normalized: GeoMean EC50
# EC50 listing for each entry below

Known EC50 results, listed for orientation:
Just so you know, measured EC50 for `O=C(Nc1c[nH]c2ccc(OCCc3ccc(C(F)(F)F)cc3)cc12)c1ccncc1` came out at 200 to 1000 nM

Just so you know, measured EC50 for `O=C(CC1CC1)Nc1c[nH]c2ccc(OCCc3ccc(C(F)(F)F)cc3)cc12` came out at 40 to 200 nM

Just so you know, measured EC50 for `Cc1noc(C)c1C(=O)Nc1c[nH]c2ccc(OCC[C@@H]3C[C@@H]4CN(CC(F)(F)F)C[C@@H]4C3)cc12` came out at 200 to 1000 nM

Just so you know, measured EC50 for `O=C(Nc1c[nH]c2ccc(COCc3ccc(C(F)(F)F)cc3)cc12)C12CC(c3ccccc3)(C1)C2` came out at 40 to 200 nM

Just so you know, measured EC50 for `Cn1cc(C(=O)Nc2c[nH]c3ccc(O[C@H]4C[C@@H](c5ccc(C(F)(F)F)cc5)C4)cc23)nn1` came out at 200 to 1000 nM

New cases:
Just so you know, measured EC50 for `O=C(Nc1c[nH]c2ccc(OCCc3ccc(C(F)(F)F)cc3)cc12)c1ccn[nH]1` came out at 40 to 200 nM

Just so you know, measured EC50 for O=C(Nc1c[nH]c2ccc(OCC[C@@H]3C[C@@H]4CN(CC(F)(F)F)C[C@@H]4C3)cc12)C1CC2C(C1)C2(F)F (stereo partly drawn) came out at 200 to 1000 nM

Just so you know, measured EC50 for `O=C(Nc1c[nH]c2ccc(OCCc3ccc(C(F)(F)F)cc3)cc12)c1ccccn1` came out at 1000 to 5000 nM

Just so you know, measured EC50 for `O=C(Nc1c[nH]c2ccc(O[C@H]3C[C@@H](c4ccc(C(F)(F)F)cc4)C3)cc12)c1ncccc1F` came out at 200 to 1000 nM

Just so you know, measured EC50 for `Cn1ccnc1C(=O)Nc1c[nH]c2ccc(O[C@H]3C[C@@H](c4ccc(C(F)(F)F)cc4)C3)cc12` came out at 200 to 1000 nM

Just so you know, measured EC50 for `O=C(Nc1c[nH]c2ccc(O[C@H]3C[C@H](c4ccc(C(F)(F)F)cc4)C3)cc12)c1ccccn1` came out at 200 to 1000 nM

====

- TESTED_ON: STING (Homo sapiens, UniProt Q86WV6, G230A/H232R/R293Q/R71H)
- TEST_DESCRIPTION: STING reporter assay (luciferase) in THP1-Dual KO-IFNAR2 cells stimulated with 2′3′cGAMP
- ASSAY_CONDITIONS: 2′3′cGAMP 15 μM final, 24 h, luciferase reporter activity, read-out: Pharmaron, THP1_IFNAR2 STING 24 h Luci Normalized: GeoMean EC50
pEC50: −log10 of the molar value.
# pEC50 listing for each entry below

Known pEC50 results, listed for orientation:
Field pEC50 (system: STING (Homo sapiens, UniProt Q86WV6, G230A/H232R/R293Q/R71H)) for entry O=C(Nc1c[nH]c2ccc(O[C@H]3C[C@H](c4ccc(C(F)(F)F)cc4)C3)cc12)C12CC(C1)C2 [Compound 212] = 6.70 to 7.40

Field pEC50 (system: STING (Homo sapiens, UniProt Q86WV6, G230A/H232R/R293Q/R71H)) for entry O=C(Nc1c[nH]c2ccc(OCCc3ccc(C(F)(F)F)cc3)cc12)c1ncco1 [Compound 161] = 6.00 to 6.70

Field pEC50 (system: STING (Homo sapiens, UniProt Q86WV6, G230A/H232R/R293Q/R71H)) for entry O=C(Nc1c[nH]c2ccc(OCCc3ccc(C(F)(F)F)cc3)cc12)c1ncccc1F [Compound 109] = 6.00 to 6.70

Field pEC50 (system: STING (Homo sapiens, UniProt Q86WV6, G230A/H232R/R293Q/R71H)) for entry CC12CC(C(=O)Nc3c[nH]c4ccc(OCc5ccc(C(F)(F)F)cc5)cc34)(C1)C2 [Compound 163] = 6.00 to 6.70

Field pEC50 (system: STING (Homo sapiens, UniProt Q86WV6, G230A/H232R/R293Q/R71H)) for entry O=C(Nc1c[nH]c2ccc(CCOc3ccc(C(F)(F)F)cc3)cc12)c1ccccn1 [Compound 196] = 5.30 to 6.00

Field pEC50 (system: STING (Homo sapiens, UniProt Q86WV6, G230A/H232R/R293Q/R71H)) for entry O=C(Nc1c[nH]c2ccc(O[C@H]3C[C@H](c4ccc(C(F)(F)F)cc4)C3)cc12)C1CC2(CC2)C1 [Compound 229] = 6.70 to 7.40

New cases:
Field pEC50 (system: STING (Homo sapiens, UniProt Q86WV6, G230A/H232R/R293Q/R71H)) for entry CC1(C(=O)Nc2c[nH]c3ccc(OCC[C@@H]4C[C@@H]5CN(CC(F)(F)F)C[C@@H]5C4)cc23)CC2(COC2)C1 [Compound 205] = 6.00 to 6.70

Field pEC50 (system: STING (Homo sapiens, UniProt Q86WV6, G230A/H232R/R293Q/R71H)) for entry Cn1nccc1C(=O)Nc1c[nH]c2ccc(O[C@H]3C[C@@H](c4ccc(C(F)(F)F)cc4)C3)cc12 [Compound 168] = 6.00 to 6.70
